Each recorded value in this set is attributed to paper PMC3152678.

EXPERIMENTAL_TARGET: UniProtKB P33905
Sequence (P33905 whole entry): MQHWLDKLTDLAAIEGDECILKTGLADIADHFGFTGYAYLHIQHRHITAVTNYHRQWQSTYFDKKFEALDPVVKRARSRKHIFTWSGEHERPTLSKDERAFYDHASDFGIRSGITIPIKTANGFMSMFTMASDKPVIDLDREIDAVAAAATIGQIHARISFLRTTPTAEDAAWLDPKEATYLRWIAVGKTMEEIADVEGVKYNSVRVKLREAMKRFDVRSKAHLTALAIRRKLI
PROCEDURE_DETAILS: TraR antagonism assay in A. tumefaciens WCF
Type: cell-based
ASSAY_SETUP: 10 μM, in the presence of OOHL
QUANTITY_MEASURED: TraR agonism in the antagonism assay (more than OOHL alone) (%)

COMPOUND	UNITS_OF_MEASURE	TEST_RESULT
COc1ccc(CC(=O)NC2CCSC2=O)cc1 (stereo not shown) [Compound 28]	%	24
O=C(Cc1ccc(Br)cc1)N[C@H]1CCSC1=O [Compound 31]	%	60
